- Assay type: in vivo, NSG mice
- DETAILS: NSG, mouse, in vivo, po, 40 mg/kg
PROPERTY_NAME: AUC(0-inf) (ng·h/mL)
Lab book: enter the figure in ng·h/mL, no units written.

So what's the measured AUC(0-inf) for this one? Cc1nc(Nc2ncc(C(=O)Nc3c(C)cccc3Cl)s2)cc(N2CCN(CCO)CC2)n1 [dasatinib]
1950

###

- Assay type: in vivo, NSG mice
- DETAILS: NSG, mouse, in vivo, po, 40 mg/kg
PROPERTY_NAME: Cmax (µg/mL)
Write down the numeric answer in µg/mL and omit the unit.

Entry under review: `Cc1nc(Nc2ncc(C(=O)Nc3c(C)cccc3Cl)s2)cc(N2CCN(CCO)CC2)n1` . Reported Cmax?
0.366
